endpoint: melting point

- compound: "O=C(NC(=S)N1CCOCC1)c1cc2ccccc2oc1=O"
  measured.value: "123 to 125 °C"
- compound: "CCCNC(=S)NC(=O)c1cc2ccccc2oc1=O [e2]"
  measured.value: "123 °C"
- compound: "CNC(=S)NC(=O)c1cc2ccccc2oc1=O [e1]"
  measured.value: "146 to 148 °C"
- compound: "O=C(NC(=S)NCCC1=CCCCC1)c1cc2ccccc2oc1=O"
  measured.value: "142 to 143 °C"
- compound: "CC(C)N(C(=S)NC(=O)c1cc2ccccc2oc1=O)C(C)C"
  measured.value: "150 to 151 °C"
- compound: "O=C(NC(=S)NCCN1CCCC1)c1cc2ccccc2oc1=O"
  measured.value: "131 to 132 °C"
- compound: "O=C(NC(=S)NCCN1CCOCC1)c1cc2ccccc2oc1=O"
  measured.value: "136 to 138 °C"

====

hCA IX (Homo sapiens) measurements of Ki, listed per entry.
endpoint: Ki (nM)

- compound: "CN1CCN(NC(=S)NC(=O)c2cc3ccccc3oc2=O)CC1 [e17]"
  endpoint: "Ki"
  measured.value: 259
- compound: "O=C(NC(=S)NC1Cc2ccccc2C1)c1cc2ccccc2oc1=O [e10]"
  endpoint: "Ki"
  measured.value: 130
- compound: "CCCNC(=S)NC(=O)c1cc2ccccc2oc1=O [e2]"
  endpoint: "Ki"
  measured.value: 286
- compound: "O=C(NC(=S)N1CCOCC1)c1cc2ccccc2oc1=O [e9]"
  endpoint: "Ki"
  measured.value: 136
- compound: "O=C(NC(=S)N1CCCC1)c1cc2ccccc2oc1=O [e6]"
  endpoint: "Ki"
  measured.value: 298
- compound: "CNC(=S)NC(=O)c1cc2ccccc2oc1=O [e1]"
  endpoint: "Ki"
  measured.value: 323

====

Parameter: melting point. Scope: all listed entries.

- smiles.string: "O=C(NC(=S)NCCN1CCNCC1)c1cc2ccccc2oc1=O"
  melting point: "163 to 165 °C"
- smiles.string: "O=C(NC(=S)NN1CCOCC1)c1cc2ccccc2oc1=O"
  melting point: "180 to 182 °C"
- smiles.string: "O=C(NC(=S)N1CCCC1)c1cc2ccccc2oc1=O"
  melting point: "162 to 163 °C"
- smiles.string: "O=C(NC(=S)NCc1ccc2c(c1)OCO2)c1cc2ccccc2oc1=O"
  melting point: "188 to 190 °C"
- smiles.string: "COc1ccc(CCNC(=S)NC(=O)c2cc3ccccc3oc2=O)cc1OC"
  melting point: "148 to 149 °C"
- smiles.string: "O=C(NC(=S)N1CCCCC1)c1cc2ccccc2oc1=O"
  melting point: "175 to 176 °C"
- smiles.string: "CN1CCN(NC(=S)NC(=O)c2cc3ccccc3oc2=O)CC1"
  melting point: "204 °C"
- smiles.string: "CN(C)CCCNC(=S)NC(=O)c1cc2ccccc2oc1=O"
  melting point: "100 °C"
- smiles.string: "CN1CCN(C(=S)NC(=O)c2cc3ccccc3oc2=O)CC1"
  melting point: "162 to 164 °C"
- smiles.string: "O=C(NC(=S)NN1CCCCC1)c1cc2ccccc2oc1=O"
  melting point: "206 °C"
- smiles.string: "CCN(CC)C(=S)NC(=O)c1cc2ccccc2oc1=O"
  melting point: "143 °C"
